System: A2058 (Melanoma);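 further: after 72 h of two-drug dosing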
Assay: Bliss excess, mean over the matrix (fraction); higher = more synergy
Label FALSE if Bliss excess falls below -0.02; label TRUE in every other case.

INSERT INTO results (compound, answer_label) VALUES
  ('CCN(CCO)CCCOc1ccc2c(Nc3cc(CC(=O)Nc4cccc(F)c4)[nH]n3)ncnc2c1 [AZD2811] + O=C(c1cc(Cc2n[nH]c(=O)c3ccccc23)ccc1F)N1CCN(C(=O)C2CC2)CC1 [Olaparib] (first compound max 1 µM, 7x7, partner max 10 µM)', 'TRUE'),
  ('CN(C)CCCOc1ccc(-c2ccc3ncc4c(c3c2)n(C2CCOCC2)c(=O)n4C)cn1 [AZD0156] + C=CCn1c(=O)c2cnc(Nc3ccc(N4CCN(C)CC4)cc3)nc2n1-c1cccc(C(C)(C)O)n1 [AZD1775] (first compound max 1 µM, partner max 1 µM)', 'FALSE'),
  ('CS(=O)(=O)CCNCc1ccc(-c2ccc3ncnc(Nc4ccc(OCc5cccc(F)c5)c(Cl)c4)c3c2)o1 [Lapatinib] + NC1(c2ccc(-c3nc4ccn5c(=O)[nH]nc5c4cc3-c3ccccc3)cc2)CCC1 [MK-2206] (first compound max 10 µM, 7x7, partner max 10 µM)', 'FALSE'),
  ('COc1cccc(OCCCN)c1-c1cc(Nc2cnc(C#N)cn2)n[nH]1 [Prexasertib] + O=C(c1cc(Cc2n[nH]c(=O)c3ccccc23)ccc1F)N1CCN(C(=O)C2CC2)CC1 [Olaparib] (first compound max 1 µM, 7x7, partner max 10 µM)', 'TRUE'),
  ('COc1cccc(OCCCN)c1-c1cc(Nc2cnc(C#N)cn2)n[nH]1 [Prexasertib] + C[C@@H]1COCCN1C2=NC(=NC(=C2)C3(CC3)[S@](=N)(=O)C)C4=C5C=CNC5=NC=C4 [AZD6738] (first compound max 1 µM, 7x7, partner max 10 µM)', 'TRUE'),
  ('C[C@@H](c1ccc2nccn2c1)n1nnc2ncc(-c3cnn(C)c3)nc21 [Savolitinib] + CN(CC[C@H](CSC1=CC=CC=C1)NC2=C(C=C(C=C2)S(=O)(=O)NC(=O)C3=CC=C(C=C3)N4CCC(CC4)[C@H](C5=CC=CC=C5C6=CC=C(C=C6)Cl)O)S(=O)(=O)C(F)(F)F)CCO [AZD4320] (first compound max 1 µM, 7x7, partner max 1 µM)', 'TRUE'),
  ('Cn1cnc2c(F)c(Nc3ccc(Br)cc3Cl)c(C(=O)NOCCO)cc21 [Selumetinib] + C=CCn1c(=O)c2cnc(Nc3ccc(N4CCN(C)CC4)cc3)nc2n1-c1cccc(C(C)(C)O)n1 [AZD1775] (first compound max 10 µM, partner max 1 µM)', 'FALSE'),
  ('Cn1cnc2c(F)c(Nc3ccc(Br)cc3Cl)c(C(=O)NOCCO)cc21 [Selumetinib] + CC(C)n1c(=O)n(C)c2cnc3cc(F)c(-c4ccc(OCCCN5CCCCC5)nc4)cc3c21 [AZD1390] (first compound max 10 µM, 7x7, partner max 0.3 µM)', 'TRUE'),
  ('Cc1c2c(nn1C)CSCc1cc(n(C)n1)CSc1cc(c3ccccc3c1)OCCCc1c(C(=O)O)n(C)c3c-2c(Cl)ccc13 [AZD5991] + C=CCn1c(=O)c2cnc(Nc3ccc(N4CCN(C)CC4)cc3)nc2n1-c1cccc(C(C)(C)O)n1 [AZD1775] (first compound max 1 µM, partner max 1 µM)', 'TRUE');
